Value source: patent US20230202973A1

Target: papain (Carica papaya, UniProt P00784)
Construct: purchased Sigma-Aldrich P4762
Sequence (P00784 134-345): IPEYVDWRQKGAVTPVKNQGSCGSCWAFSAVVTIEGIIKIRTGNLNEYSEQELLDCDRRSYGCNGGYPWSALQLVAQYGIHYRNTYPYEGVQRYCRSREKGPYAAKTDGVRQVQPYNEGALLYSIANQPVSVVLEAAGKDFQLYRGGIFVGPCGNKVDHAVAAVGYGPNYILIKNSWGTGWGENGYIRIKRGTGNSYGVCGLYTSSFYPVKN
Experiment: Protease assay with azocasein: papain
Assay type: biochemical
Conditions: azocasein substrate, pH 7.2; n.i. = no inhibition; read-out: Papain, inhibitory activity as IC50 value
Assign IC50 to each entry below.
Answers are plain numbers, in µM.

Consider the following items and state reported IC50 for each.
1. CCCCCCCC(=O)N[C@@H](Cc1ccc(O)cc1)C(=O)N[C@H](/C=C/C(=O)O)CCCNC(=N)N [17,18-Dihydrobarnesin (4), 17,18-Dihydrobarnesin]
2. CCCCC/C=C/C(=O)N[C@@H](Cc1ccc(O)cc1)C(=O)N[C@H](/C=C/C(=O)O)CCCNC(=N)N
3. CCCCC/C=C/C(=O)N[C@@H](Cc1ccc(O)cc1)C(=O)N[C@H](/C=C/C(=O)OCC)CCCN=C(N)N

4.78
16
2.89

---

Assay: Glutathione (GSH) assay
Format: in vitro ADME
Conditions: negative control: test item in phosphate buffer without GSH, time 90 min, relative to t=0
Method: Procedure: A standard GSH assay includes a phosphate buffer (720 μL), a GSH solution (40 μL, 100 mM) and the test solution of the test compound (20 μM in 10% DMSO in phosphate buffer (100 mM, pH 7.4)). […] Samples are prepared as follows: phosphate buffer (720 μL) and GSH solution (40 μL, 100 mM) were preincubated at 37° C., and 40 μL of the test item solution (or internal standard) added. […] The peak areas of the extracted ion chromatograms were determined using the standard software.
MEASURED_ENDPOINT: Area rel. [%] (GSH assay, NC) (%)
One number for each entry, in %.

Worked cases, Area rel. [%] (GSH assay, NC) given:
[[record]]
compound = "CCCCC/C=C/C(=O)N[C@@H](Cc1ccc(O)cc1)C(=O)N[C@@H](/C=C/C(=O)O)CCCCN [drawing 52]"
meas_value = 103.9

[[record]]
compound = "CC(=O)N[C@@H](Cc1ccc(O)cc1)C(=O)N[C@H](/C=C/C(=O)O)CCCNC(=N)N [drawing 58]"
meas_value = 108.9

[[record]]
compound = "CCCCC/C=C/C(=O)N[C@H](Cc1ccc(O)cc1)C(=O)N[C@H](/C=C/C(=O)O)CCCNC(=N)N [drawing 55]"
meas_value = 91.9

[[record]]
compound = "CCCCC/C=C/C(=O)N[C@@H](Cc1ccccc1)C(=O)N[C@H](/C=C/C(=O)O)CCCNC(=N)N [drawing 53]"
meas_value = 101.8


For the next question, use this compound.
Return reported Area rel. [%] (GSH assay, NC); argument: CCCCC/C=C/C(=O)N[C@@H](Cc1ccc(O)cc1)C(=O)N[C@H](/C=C/C(=O)O)CCCNC(=N)N [drawing 51]
91.9

---

Assay: Glutathione (GSH) assay
Assay type: in vitro ADME
Details: with GSH, 37° C., pH 7.4, time 90 min, relative to t=0
Procedure: Procedure: A standard GSH assay includes a phosphate buffer (720 μL), a GSH solution (40 μL, 100 mM) and the test solution of the test compound (20 μM in 10% DMSO in phosphate buffer (100 mM, pH 7.4)). […] Samples are prepared as follows: phosphate buffer (720 μL) and GSH solution (40 μL, 100 mM) were preincubated at 37° C., and 40 μL of the test item solution (or internal standard) added. […] The peak areas of the extracted ion chromatograms were determined using the standard software.
MEASURED_ENDPOINT: Area rel. [%] (GSH assay) (%)
Answers are plain numbers, in %.

Please give Area rel. [%] (GSH assay) for each item listed below.
1. CCCCC/C=C/C(=O)N[C@@H](Cc1ccc(O)cc1)C(=O)N[C@H](/C=C/C(=O)O)CCCNC(=N)N [drawing 51]
2. CCCCC/C=C/C(=O)N[C@@H](Cc1ccc(O)cc1)C(=O)N[C@@H](/C=C/C(=O)O)CCCCN [drawing 52]
3. CCCCC/C=C/C(=O)N[C@H](Cc1ccc(O)cc1)C(=O)N[C@H](/C=C/C(=O)O)CCCNC(=N)N [drawing 55]
4. CCCCC/C=C/C(=O)N[C@@H](Cc1ccccc1)C(=O)N[C@H](/C=C/C(=O)O)CCCNC(=N)N [drawing 53]

[94.2, 98.0, 98.6, 106.2]

Name the recorded Area rel. [%] (GSH assay) for CC(=O)N[C@@H](Cc1ccc(O)cc1)C(=O)N[C@H](/C=C/C(=O)O)CCCNC(=N)N [drawing 58] .
112.8
